test system: N87 cell; assay: Cell proliferation inhibitory activity (Cell-Titer-Glo), N87; type: cell-based; conditions: 72 h; 3 days incubation
EXPERIMENTAL ENDPOINT: pIC50
Friendly reminder that pIC50 comes from taking -log10 of the concentration in mol/L.

Consider the worked cases shown below.
>>> print(df.to_string())
                                   molecule  experimental_endpoint  reported_value
0  C[C@H]1COCCN1c1nc(N2CCOC3(CC3)C2)nc2nc(-c3cccc(C(N)=O)c3)ccc12                  pIC50            7.23
1  COc1ccc(-c2ccc3c(N4CCOC[C@@H]4C)nc(N4CCOC5(CC5)C4)nc3n2)cc1C(N)=O                  pIC50            6.78
2  COc1ccc(-c2ccc3c(N4CCOC[C@@H]4C)nc(N4CCOC5(CC5)C4)nc3n2)cc1CO                  pIC50            6.92
3  C[C@H]1COCCN1c1nc(N2CCOC3(CCC3)C2)nc2nc(-c3cccc(C(N)=O)c3)ccc12                  pIC50            7.05
4  CNC(=O)c1cccc(-c2ccc3c(N4CCOC[C@@H]4C)nc(N4CCOC[C@@H]4C)nc3n2)c1 [AZD2014, reference compound]                  pIC50            7.23
5  CNC(=O)c1cccc(-c2ccc3c(N4CCOC[C@@H]4C)nc(N4CCOC5(CCC5)C4)nc3n2)c1                  pIC50            7.03
6  CNC(=O)c1cc(-c2ccc3c(N4CCOC[C@@H]4C)nc(N4CCOC5(CC5)C4)nc3n2)ccc1OC                  pIC50            6.92
7  C[C@H]1COC2(CCC2)CN1c1nc(N2CCOC[C@@H]2C)c2ccc(-c3cccc(C(N)=O)c3)nc2n1                  pIC50            7.36

Request: # lookup: pIC50 of `CNC(=O)c1cccc(-c2ccc3c(N4CCOC[C@@H]4C)nc(N4CCOC5(CC5)C4)nc3n2)c1`
Result: 7.21
